Measured GI50 by item
tested on: HT29 colon; experiment: NCI tumour cell line growth inhibition, 48 h

Any idea what GI50 came out for Cc1ccc(-c2cc3c(NC(=O)C4CC4)ncnc3o2)cc1 on HT29 colon?
> 25000 nM

Next molecule up: O=C(Nc1ccc(Cl)cc1)Nc1ccc(Oc2nncc3ccccc23)cc1
465 nM

Moving on to the next molecule: [Co+2].[O-]c1ccccc1C=NCc1ccccc1.[O-]c1ccccc1C=NCc1ccccc1
82600 nM

Please give the result for CC(C)CCC[C@@H](C)[C@H]1CCC2C3=CCn4c(=O)ccc(=O)n4C3CC[C@@]21C (stereo not given in full) too.
575 nM

Next record, please: CN1C(=O)/C(=C/c2c(Cl)[nH]c3ccccc23)c2ccccc21
25500 nM

Try OCC#Cc1ccccc1C#CCCCCCCC#Cc1ccccc1C#CCO next.
22700 nM

Record: NCCCCCCn1c2c(c3ccccc3c1=O)C(=O)c1ccccc1-2
1200 nM

How about this molecule: Cc1cc(C(=O)NC(C)(C)C)cc(C#Cc2ccc3c4c(oc3c2)C(C)(C)c2cc(NS(C)(=O)=O)ccc2C4=O)n1
1200 nM

Same question for COc1ccc2c(c1)OCC1c3cc(O)ccc3OC21 (stereo not given) please.
47500 nM

And O=C1/C(=C/c2ccc(O)c(O)c2)COc2ccc(-c3ccccc3)cc21 ?
1500 nM
